Taken from patent US20110136762A1.

System: Septoria tritici
test_protocol: Test C: wheat leaf blotch, preventive spray on wheat seedlings, visual disease rating
Assay type: in vivo
condition_parameters: Zymoseptoria tritici, 504 h; 200 ppm; 100 = 100% disease control, 0 = no disease control relative to controls
Listing: pest or weed control at 200 ppm of selected compounds
property_name: pest or weed control at 200 ppm (%)

COc1cc(OC)cc(-c2c(-c3ccccc3F)nnc(C)c2-c2c(F)cc(OCCCN(C)C)cc2F)c1; 98
COc1cc(OC)cc(-c2c(-c3ccccc3F)nnc(OC)c2-c2c(F)cc(F)cc2F)c1; 99
COc1cc(OC)cc(-c2c(-c3cc(F)c(F)cc3F)cnnc2-c2ccccc2F)c1; 99
Cc1nnc(-c2ccccc2F)c(-c2cccc(F)c2)c1-c1c(F)cc(F)cc1F; 96
COc1cc(OC)cc(-c2c(-c3ccccn3)nnc(C)c2-c2ccccc2)c1; 0
COc1cc(OC)cc(-c2c(-c3ccccc3F)nnc(C)c2-c2c(F)cc(F)cc2F)c1; 96
COc1cc(OC)cc(-c2c(-c3ccccc3)n[n+]([O-])c(C)c2-c2ccc(F)cc2)c1; 99
COc1cc(OC)cc(-c2c(-c3ccccc3F)nnc(C)c2-c2ccc(F)cc2F)c1; 99
COc1ccc(-c2c(C)nnc(-c3ccccc3)c2-c2cc(OC)cc(OC)c2)cc1; 100
COc1cc(OC)cc(-c2c(-c3ccccc3F)nnc(Cl)c2-c2ccc(F)cc2F)c1; 98
COc1ccc(-c2c(C)nnc(-c3ccc(F)cc3F)c2-c2cc(OC)cc(OC)c2)cc1; 100
CNCCCOc1cc(F)c(-c2c(C)nnc(-c3ccccc3F)c2-c2cc(OC)cc(OC)c2)c(F)c1; 99
COc1cc(OC)cc(-c2c(-c3ccccc3F)nnc(C)c2-c2ccc(F)cc2)c1; 100
COc1cc(OC)cc(-c2c(-c3ccccc3)nnc(C)c2-c2ccc(F)cc2)c1; 100
COc1ccc(-c2c(C)nnc(-c3ccccc3F)c2-c2cc(OC)cc(OC)c2)cc1; 100
COc1cc(OC)cc(-c2c(-c3ccccc3)nnc(CCl)c2-c2ccc(F)cc2)c1; 77

---

System: Puccinia recondita f. sp. tritici
test_protocol: Test B: wheat leaf rust, preventive spray on wheat seedlings, visual disease rating
Assay type: in vivo
condition_parameters: 192 h; 200 ppm; 100 = 100% disease control, 0 = no disease control relative to controls
property_name: pest or weed control at 200 ppm (%)

COc1ccc(-c2c(C)nnc(-c3ccc(F)cc3F)c2-c2cc(OC)cc(OC)c2)cc1; 91
COc1cc(OC)cc(-c2c(-c3ccccc3)n[n+]([O-])c(C)c2-c2ccc(F)cc2)c1; 100
COc1ccc(-c2c(C)nnc(-c3ccccc3)c2-c2cc(OC)cc(OC)c2)cc1; 100
COc1cc(OC)cc(-c2c(-c3ccccc3F)nnc(C)c2-c2ccc(F)cc2F)c1; 100
COc1cc(OC)cc(-c2c(-c3cc(F)c(F)cc3F)cnnc2-c2ccccc2F)c1; 100
COc1cc(OC)cc(-c2c(-c3ccccc3)nnc(C)c2-c2ccc(F)cc2)c1; 99
COc1cc(OC)cc(-c2c(-c3ccccc3F)nnc(OC)c2-c2c(F)cc(F)cc2F)c1; 100
COc1cc(OC)cc(-c2c(-c3ccccn3)nnc(C)c2-c2ccccc2)c1; 41

---

Tested on: Botrytis cinerea
test_protocol: Test F: tomato Botrytis, preventive spray on tomato seedlings, visual disease rating
Type: in vivo
condition_parameters: 200 ppm; 100 = 100% disease control, 0 = no disease control relative to controls
Excerpt: General protocol for preparing test suspensions for Tests A-F: […] The resulting test suspensions were then used in Tests A-F. The test suspensions were sprayed to the point of run-off on the test plants. All results are for 200 ppm (equivalent to a rate of 500 g/ha) except where followed by “*” which indicates 40 ppm. The test suspension was sprayed to the point of run-off on tomato seedlings. […]
property_name: Test F rating (disease control, tomato Botrytis) (%)

COc1cc(OC)cc(-c2c(-c3ccc(F)cc3F)nnc(C)c2-c2ccccc2)c1; 82
COc1cc(OC)cc(-c2c(-c3ccccc3F)nnc(C)c2-c2ccccc2)c1; 94
COc1cc(OC)cc(-c2c(-c3cccc(F)c3F)nnc(C)c2-c2ccccc2)c1; 95
COc1cc(OC)cc(-c2c(-c3ccccc3)nnc(C)c2-c2ccc(Cl)cc2)c1; 67
COc1cc(OC)cc(-c2c(-c3ccccc3)nnc(Cl)c2-c2c(F)cc(F)cc2F)c1; 100
COc1cc(OC)cc(-c2c(-c3ccc(F)cc3)nnc(C)c2-c2ccccc2)c1; 0
Cc1nnc(-c2ccccc2F)c(-c2ccc(Cl)cc2)c1-c1c(F)cc(F)cc1F; 86
COc1cc(OC)cc(-c2c(-c3ccc(F)cc3F)cnnc2-c2ccccc2F)c1; 99

---

Tested on: Botrytis cinerea
test_protocol: Test F: tomato Botrytis, preventive spray on tomato seedlings, visual disease rating
Format: in vivo
condition_parameters: 40 ppm (marked *); 100 = 100% disease control, 0 = no disease control relative to controls
Marks after values point to notes of the source that are not given here.
Listing: Test F rating (disease control, tomato Botrytis) of selected compounds
property_name: Test F rating (disease control, tomato Botrytis)

COc1ccncc1-c1c(-c2ccccc2F)nnc(C)c1-c1c(F)cc(F)cc1F; 100* %
COc1cc(OC)cc(-c2c(-c3ccccc3F)nnc(C)c2-c2c(F)cccc2F)c1; 95* %
Cc1nnc(-c2ccccc2F)c(-c2cncc(F)c2)c1-c1c(F)cc(F)cc1F; 100* %
Fc1cncc(-c2c(-c3ccccc3F)nnc(Cl)c2-c2c(F)cc(F)cc2F)c1; 100* %

---

System: Botrytis cinerea
test_protocol: Test F: tomato Botrytis, preventive spray on tomato seedlings, visual disease rating
Format: in vivo
condition_parameters: 40 ppm (marked *); 100 = 100% disease control, 0 = no disease control relative to controls
Marks after values point to notes of the source that are not given here.
property_name: Test F rating (disease control, tomato Botrytis)

C=C(C)c1nnc(C)c(-c2c(F)cccc2F)c1-c1cc(OC)cc(OC)c1; 98* %
COc1ccncc1-c1c(-c2ccccc2F)nnc(Cl)c1-c1c(F)cc(F)cc1F; 100* %
COc1cncc(-c2c(-c3ccccc3F)nnc(C)c2-c2c(F)cc(F)cc2F)c1; 100* %
COc1cc(-c2c(-c3ccccc3F)nnc(C)c2-c2c(F)cc(F)cc2F)cc(OC)c1Cl; 99* %
COc1cc(OC)c(Cl)c(-c2c(-c3ccccc3F)nnc(Cl)c2-c2c(F)cc(F)cc2F)c1; 100* %
COc1cc(OC)c(Br)c(-c2c(-c3ccccc3F)nnc(C)c2-c2c(F)cc(F)cc2F)c1; 100* %

---

Test system: Botrytis cinerea
test_protocol: Test F: tomato Botrytis, preventive spray on tomato seedlings, visual disease rating
Type: in vivo
condition_parameters: 200 ppm; 100 = 100% disease control, 0 = no disease control relative to controls
Listing: Test F rating (disease control, tomato Botrytis) of selected compounds
property_name: Test F rating (disease control, tomato Botrytis) (%)

C=C(C)c1nnc(C)c(-c2ccc(OC)cc2)c1-c1cc(OC)cc(OC)c1; 98
COc1cc(OC)cc(-c2c(-c3ccccc3)nnc(C)c2-c2ccccc2)c1; 52
C=C(C)c1nnc(C)c(-c2ccc(F)cc2F)c1-c1cc(OC)cc(OC)c1; 99

---

Listing: pest or weed control at 200 ppm of selected molecules
Tested on: Puccinia recondita f. sp. tritici
test_protocol: Test B: wheat leaf rust, preventive spray on wheat seedlings, visual disease rating
Assay type: in vivo
condition_parameters: 192 h; 200 ppm; 100 = 100% disease control, 0 = no disease control relative to controls
property_name: pest or weed control at 200 ppm (%)

COc1cc(OC)cc(-c2c(-c3ccccc3F)nnc(Cl)c2-c2ccc(F)cc2F)c1; 100
Cc1nnc(-c2ccccc2F)c(-c2cccc(F)c2)c1-c1c(F)cc(F)cc1F; 100
COc1cc(OC)cc(-c2c(-c3ccccc3F)nnc(C)c2-c2c(F)cc(OCCCN(C)C)cc2F)c1; 100
COc1cc(OC)cc(-c2c(-c3ccccc3F)nnc(C)c2-c2ccc(F)cc2)c1; 99
CNCCCOc1cc(F)c(-c2c(C)nnc(-c3ccccc3F)c2-c2cc(OC)cc(OC)c2)c(F)c1; 100
COc1cc(OC)cc(-c2c(-c3ccccc3F)nnc(C)c2-c2c(F)cc(F)cc2F)c1; 100
COc1ccc(-c2c(C)nnc(-c3ccccc3F)c2-c2cc(OC)cc(OC)c2)cc1; 100
COc1cc(OC)cc(-c2c(-c3ccccc3)nnc(CCl)c2-c2ccc(F)cc2)c1; 91
